system_under_test: Acetylcholinesterase (Mus musculus)
assay_conditions: Brain, at 1 µM
experimental_readout: inhibition

smiles_repr=O=C(Oc1cccc(/C=C2\Cc3ccccc3C2=O)c1)c1cccc(OC(F)(F)F)c1 system_under_test="Acetylcholinesterase (Mus musculus)" experimental_readout=inhibition assay_result=73.6%
smiles_repr=COc1cc(C(=O)Oc2cccc(/C=C3\Cc4ccccc4C3=O)c2)cc(OC)c1OC system_under_test="Acetylcholinesterase (Mus musculus)" experimental_readout=inhibition assay_result=69.1%
smiles_repr=O=C(Oc1cccc(/C=C2\Cc3ccccc3C2=O)c1)c1ccccc1F system_under_test="Acetylcholinesterase (Mus musculus)" experimental_readout=inhibition assay_result=80.4%
smiles_repr=O=C(Oc1cccc(/C=C2\Cc3ccccc3C2=O)c1)c1ccccc1 system_under_test="Acetylcholinesterase (Mus musculus)" experimental_readout=inhibition assay_result=30.6%
smiles_repr=O=C(Oc1cccc(/C=C2\Cc3ccccc3C2=O)c1)c1cccc(CCl)c1 system_under_test="Acetylcholinesterase (Mus musculus)" experimental_readout=inhibition assay_result=75.9%
smiles_repr=COc1ccc(C(=O)Oc2cccc(/C=C3\Cc4ccccc4C3=O)c2)cc1 system_under_test="Acetylcholinesterase (Mus musculus)" experimental_readout=inhibition assay_result=30.6%
smiles_repr=O=C(Oc1cccc(/C=C2\Cc3ccccc3C2=O)c1)c1ccc(F)cc1 system_under_test="Acetylcholinesterase (Mus musculus)" experimental_readout=inhibition assay_result=33.9%
smiles_repr=O=C(Oc1cccc(/C=C2\Cc3ccccc3C2=O)c1)c1ccc(CCl)cc1 system_under_test="Acetylcholinesterase (Mus musculus)" experimental_readout=inhibition assay_result=67.6%
smiles_repr=O=C(Oc1cccc(/C=C2\Cc3ccccc3C2=O)c1)c1cc(Cl)cc(Cl)c1 system_under_test="Acetylcholinesterase (Mus musculus)" experimental_readout=inhibition assay_result=37%
smiles_repr=O=C(Oc1cccc(/C=C2\Cc3ccccc3C2=O)c1)c1ccc([N+](=O)[O-])cc1 system_under_test="Acetylcholinesterase (Mus musculus)" experimental_readout=inhibition assay_result=72.1%
smiles_repr=O=C(Oc1cccc(/C=C2\Cc3ccccc3C2=O)c1)c1cc(C(F)(F)F)cc(C(F)(F)F)c1 system_under_test="Acetylcholinesterase (Mus musculus)" experimental_readout=inhibition assay_result=38.7%

----------
Documented inhibition across a set of compounds
system_under_test: Acetylcholinesterase (Mus musculus) (UniProt P21836)
assay_conditions: Brain, at 5 µM
experimental_readout: inhibition (%)

smiles_repr=O=C(Oc1cccc(/C=C2\Cc3ccccc3C2=O)c1)c1cccc(OC(F)(F)F)c1 experimental_readout=inhibition assay_result=72.1
smiles_repr=O=C(Oc1cccc(/C=C2\Cc3ccccc3C2=O)c1)c1cccc(CCl)c1 experimental_readout=inhibition assay_result=70.6
smiles_repr=O=C(Oc1cccc(/C=C2\Cc3ccccc3C2=O)c1)c1ccccc1F experimental_readout=inhibition assay_result=48.8
smiles_repr=O=C(Oc1cccc(/C=C2\Cc3ccccc3C2=O)c1)c1ccccc1 experimental_readout=inhibition assay_result=27.4
smiles_repr=COc1ccc(C(=O)Oc2cccc(/C=C3\Cc4ccccc4C3=O)c2)cc1 experimental_readout=inhibition assay_result=32.2
smiles_repr=O=C(Oc1cccc(/C=C2\Cc3ccccc3C2=O)c1)c1cc(Cl)cc(Cl)c1 experimental_readout=inhibition assay_result=41.9

----------
system_under_test: Acetylcholinesterase (Mus musculus) (UniProt P21836)
Sequence (whole entry): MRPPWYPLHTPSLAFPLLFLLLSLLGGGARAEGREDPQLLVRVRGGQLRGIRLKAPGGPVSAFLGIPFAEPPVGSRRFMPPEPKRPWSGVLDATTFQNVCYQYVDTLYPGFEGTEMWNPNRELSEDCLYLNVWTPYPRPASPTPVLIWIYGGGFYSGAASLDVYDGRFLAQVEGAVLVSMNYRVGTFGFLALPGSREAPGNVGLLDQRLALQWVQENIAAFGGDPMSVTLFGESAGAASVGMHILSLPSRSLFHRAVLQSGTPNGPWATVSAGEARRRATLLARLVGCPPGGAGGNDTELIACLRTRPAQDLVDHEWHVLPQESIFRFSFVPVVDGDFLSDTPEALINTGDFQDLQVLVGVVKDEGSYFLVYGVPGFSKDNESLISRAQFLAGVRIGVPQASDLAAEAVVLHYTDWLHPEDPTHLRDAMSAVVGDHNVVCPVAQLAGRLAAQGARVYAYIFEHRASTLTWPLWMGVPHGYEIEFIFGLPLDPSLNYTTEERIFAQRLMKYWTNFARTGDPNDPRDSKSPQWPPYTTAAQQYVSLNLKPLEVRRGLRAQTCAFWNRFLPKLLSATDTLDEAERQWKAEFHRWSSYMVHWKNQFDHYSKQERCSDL
assay_conditions: Brain, at 25 µM
Classification field: enter MET for inhibition values not below 60%, NOT MET for values below it.

smiles_repr=O=C(Oc1cccc(/C=C2\Cc3ccccc3C2=O)c1)c1ccccc1 class_label="NOT MET"
smiles_repr=O=C(Oc1cccc(/C=C2\Cc3ccccc3C2=O)c1)c1cccc(CCl)c1 class_label=MET
smiles_repr=COc1cc(C(=O)Oc2cccc(/C=C3\Cc4ccccc4C3=O)c2)cc(OC)c1OC class_label=MET
smiles_repr=O=C(Oc1cccc(/C=C2\Cc3ccccc3C2=O)c1)c1ccc(CCl)cc1 class_label="NOT MET"
smiles_repr=O=C(Oc1cccc(/C=C2\Cc3ccccc3C2=O)c1)c1cccc(OC(F)(F)F)c1 class_label=MET
